tested on: OVCAR-5; assay: Antiproliferative activity against human cancer OVCAR-5 cell line; type: functional, cell-based; details: ovcar-5
pIC50: −log10 of the molar value.
quantity.kind: pIC50

[[record]]
molecule = "COc1ccc(-c2cc(-c3cc(OC)c(OC)c(OC)c3)[nH]n2)cc1"
quantitative_result = 5.11


====

test system: SW-620; test: Inhibitory concentration against human colon cancer SW-620 cell line; type: functional, cell-based; conditions: Homo sapiens, SW-620
Param label: returns TRUE when IC50 < 8 µM, returns FALSE otherwise, including exact equality.

[[record]]
compound = "COc1ccc(C2NN=C(c3cc(OC)c(OC)c(OC)c3)C2O)cc1OC (stereo unspecified)"
classification = "FALSE"

[[record]]
compound = "COc1ccc(-c2cc(-c3cc(OC)c(OC)c(OC)c3)[nH]n2)cc1"
classification = "TRUE"

[[record]]
compound = "COc1cc(C2=NNC(c3ccc(F)cc3)C2O)cc(OC)c1OC (stereo unspecified)"
classification = "TRUE"

[[record]]
compound = "COc1cc(-c2cc(-c3ccc4c(c3)OCO4)[nH]n2)cc(OC)c1OC"
classification = "FALSE"

[[record]]
compound = "COc1ccc(-c2cc(-c3cc(OC)c(OC)c(OC)c3)[nH]n2)cc1OC"
classification = "TRUE"

[[record]]
compound = "COc1cc(-c2cc(-c3ccc(F)cc3)[nH]n2)cc(OC)c1OC"
classification = "TRUE"

[[record]]
compound = "COc1cc(/C=C/C(=O)c2ccccc2)cc(OC)c1OC"
classification = "FALSE"

[[record]]
compound = "COc1cc(-c2cc(-c3ccc(Cl)cc3)[nH]n2)cc(OC)c1OC"
classification = "TRUE"

[[record]]
compound = "COc1ccc(C2NN=C(c3cc(OC)c(OC)c(OC)c3)C2O)cc1 (stereo unspecified)"
classification = "TRUE"

[[record]]
compound = "COc1ccc(-c2cc(-c3cc(OC)c(OC)c(OC)c3)nn2C(C)=O)cc1OC"
classification = "FALSE"

[[record]]
compound = "COc1ccc(/C=C/C(=O)c2cc(OC)c(OC)c(OC)c2)cc1OC"
classification = "TRUE"

[[record]]
compound = "COc1cc(-c2cc(-c3cc(OC)c(OC)c(OC)c3)[nH]n2)cc(OC)c1OC"
classification = "FALSE"

[[record]]
compound = "COc1cccc(C2NN=C(c3cc(OC)c(OC)c(OC)c3)C2O)c1 (stereo unspecified)"
classification = "TRUE"

[[record]]
compound = "COc1cc(C2=NNC(c3ccc4c(c3)OCO4)C2O)cc(OC)c1OC (stereo unspecified)"
classification = "TRUE"

[[record]]
compound = "COc1cc(C2=NNC(c3cc(OC)c(OC)c(OC)c3)C2O)cc(OC)c1OC (stereo unspecified)"
classification = "FALSE"

[[record]]
compound = "COc1cc(C2=NNC(c3ccc(Cl)cc3)C2O)cc(OC)c1OC (stereo unspecified)"
classification = "FALSE"


====

test system: PC-3; test: Antiproliferative activity against prostate cancer PC-3 cell line; type: functional, cell-based, Homo sapiens; conditions: Homo sapiens, PC-3
Param label: returns 1 when IC50 < 20 µM, returns 0 otherwise, including exact equality.

[[record]]
compound = "COc1cc(-c2cc(-c3ccc(F)cc3)[nH]n2)cc(OC)c1OC"
classification = 1

[[record]]
compound = "COc1cccc(C2NN=C(c3cc(OC)c(OC)c(OC)c3)C2O)c1 (stereo unspecified)"
classification = 0

[[record]]
compound = "COc1cc(C2=NNC(c3ccc(Cl)cc3)C2O)cc(OC)c1OC (stereo unspecified)"
classification = 0

[[record]]
compound = "COc1cc(C2=NNC(c3cc(OC)c(OC)c(OC)c3)C2O)cc(OC)c1OC (stereo unspecified)"
classification = 0

[[record]]
compound = "COc1cc(-c2cc(-c3ccc4c(c3)OCO4)[nH]n2)cc(OC)c1OC"
classification = 1

[[record]]
compound = "COc1cc(C(=O)/C=C/c2ccc(F)cc2)cc(OC)c1OC"
classification = 1

[[record]]
compound = "COc1cc(C2=NNC(c3ccc4c(c3)OCO4)C2O)cc(OC)c1OC (stereo unspecified)"
classification = 0

[[record]]
compound = "COc1cc(C(=O)/C=C/c2ccc3c(c2)OCO3)cc(OC)c1OC"
classification = 1

[[record]]
compound = "COc1ccc(/C=C/C(=O)c2cc(OC)c(OC)c(OC)c2)cc1OC"
classification = 1

[[record]]
compound = "COc1ccc(-c2cc(-c3cc(OC)c(OC)c(OC)c3)[nH]n2)cc1OC"
classification = 1

[[record]]
compound = "COc1cc(C(=O)/C=C/c2ccc(Cl)cc2)cc(OC)c1OC"
classification = 0

